B1: library; numbered along this chain (parent)
chain: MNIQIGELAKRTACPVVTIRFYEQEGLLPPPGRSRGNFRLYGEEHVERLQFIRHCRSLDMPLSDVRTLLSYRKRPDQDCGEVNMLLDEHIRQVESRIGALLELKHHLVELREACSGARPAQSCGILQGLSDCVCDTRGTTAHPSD

variants of: B1; assay: sfGFP reporter fluorescence (15 h) (µM FITC); higher = higher leak; conditions: library round: Round 0; ligand: none
Kindly state sfGFP reporter fluorescence for each of the entries shown.

Take a look at these entries with their results.
[
  {
    "MUTANT_DESIGNATION": "D131K",
    "sfGFP reporter fluorescence": 0.0706
  },
  {
    "MUTANT_DESIGNATION": "V108Q",
    "sfGFP reporter fluorescence": 0.0566
  },
  {
    "MUTANT_DESIGNATION": "C123P",
    "sfGFP reporter fluorescence": 0.0559
  }
]

For each of the variants below, note its sfGFP reporter fluorescence.
1. R20D
2. P30F
3. L107T
4. Y41D
5. L58S
6. D64K L107C
7. M60L K104V
8. L68M

RESULT:
1. 0.0614
2. 0.0603
3. 0.0797
4. 0.0601
5. 0.0572
6. 3.83
7. 0.255
8. 0.0902
